Test system: Adenosine kinase (Homo sapiens)
Sequence (P55263 whole entry): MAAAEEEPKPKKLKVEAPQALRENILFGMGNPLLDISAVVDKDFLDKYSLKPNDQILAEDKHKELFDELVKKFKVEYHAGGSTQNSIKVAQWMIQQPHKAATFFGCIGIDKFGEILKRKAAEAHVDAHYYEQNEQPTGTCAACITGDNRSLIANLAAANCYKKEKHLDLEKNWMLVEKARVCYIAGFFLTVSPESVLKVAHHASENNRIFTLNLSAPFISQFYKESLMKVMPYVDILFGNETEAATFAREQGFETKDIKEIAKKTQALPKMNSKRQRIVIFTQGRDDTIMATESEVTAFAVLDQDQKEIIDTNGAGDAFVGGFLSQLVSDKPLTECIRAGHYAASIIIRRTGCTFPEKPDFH
Protocol notes: Inhibitory activity against recombinant human adenosine kinase
Assay metric: IC50 (nM)

# Compound structure, Test system, Unit abbreviation, IC50
data = [
    ("C[C@H]1O[C@@H](n2cc(-c3ccccc3)c3c(NCC(=O)NC4CC4)ncnc32)[C@H](O)[C@@H]1O", "Adenosine kinase (Homo sapiens)", "nM", 3),
]

I. CNC(=O)Nc1ncnc2c1c(-c1ccccc1)cn2[C@@H]1O[C@H](C)[C@@H](O)[C@H]1O
II. CCONC(=O)CNc1ncnc2c1c(-c1ccccc1)cn2[C@@H]1O[C@H](C)[C@@H](O)[C@H]1O
Lab note: check whether I or II shows the higher recorded IC50. Write the label of whichever entry you select.
I

A. C[C@H]1O[C@@H](n2cc(-c3ccccc3)c3c(NC(=O)C(=O)NC4CC4)ncnc32)[C@H](O)[C@@H]1O
B. C[C@H]1O[C@@H](n2cc(-c3ccccc3)c3c(NCC(=O)NCCN(C)C)ncnc32)[C@H](O)[C@@H]1O
Kindly compare A with B and tell me which has the lower IC50 figure. Write the label of whichever entry you select.
A

a. C[C@H]1O[C@@H](n2cc(-c3ccccc3)c3c(NCC(=O)NCC4CC4)ncnc32)[C@H](O)[C@@H]1O
b. C[C@H]1O[C@@H](n2cc(I)c3c(NCC(=O)NC4CC4)ncnc32)[C@H](O)[C@@H]1O
c. O=C(CNc1ncnc2c1c(-c1ccccc1)nn2[C@@H]1O[C@H](CO)[C@@H](O)[C@H]1O)NC1CC1
d. C[C@H]1O[C@@H](n2cc(-c3ccccc3)c3c(NCC(=O)Nc4ccc(Cl)cc4)ncnc32)[C@H](O)[C@@H]1O
e. C[C@H]1O[C@@H](n2cc(-c3ccccc3)c3c(NCC(=O)NC4CCCC4)ncnc32)[C@H](O)[C@@H]1O
Order the records so the highest IC50 appears first and the lowest last. Output the labels ranked as instructed.
b, c, a, e, d
(b: 880 nM, c: 10 nM, a: 6 nM, e: 1 nM, d: 0.2 nM)

a. CCCNC(=O)CNc1ncnc2c1c(-c1ccccc1)cn2[C@@H]1O[C@H](C)[C@@H](O)[C@H]1O
b. O=C(CNc1ncnc2c1c(-c1ccccc1)cn2[C@@H]1O[C@H](CO)[C@@H](O)[C@H]1O)NC1CC1
c. CNC(=O)CNc1ncnc2c1c(-c1ccccc1)cn2[C@@H]1O[C@H](C)[C@@H](O)[C@H]1O
d. O=C(CNc1ncnc2c1c(-c1ccccc1)cn2[C@@H]1OC[C@@H](O)[C@H]1O)NC1CC1
Order the records so the highest IC50 appears first and the lowest last. Output the labels ranked as instructed.
d, a, b, c

----------
Test system: Adenosine kinase (Homo sapiens)
Protocol notes: Inhibitory activity against recombinant human adenosine kinase
Assay metric: IC50 (nM)

I. C[C@H]1O[C@@H](n2cc(-c3ccccc3)c3c(NCC(N)=O)ncnc32)[C@H](O)[C@@H]1O
II. C[C@H]1O[C@@H](n2nc(-c3ccccc3)c3c(NCC(=O)NC4CC4)ncnc32)[C@H](O)[C@@H]1O
III. C[C@H]1O[C@@H](n2cc(-c3ccccc3)c3c(NCC4CC4)ncnc32)[C@H](O)[C@@H]1O
IV. CC(C)NC(=O)CNc1ncnc2c1c(-c1ccccc1)cn2[C@@H]1O[C@H](C)[C@@H](O)[C@H]1O
Please rank these compounds by IC50 in descending order. Output the labels ranked as instructed.
III, IV, II, I

Origin of measurements: ChEMBL document CHEMBL1141192
